Reference for the values: PubChem BioAssay (Tox21)

Target: Acetylcholinesterase (Homo sapiens)
Assay: Acetylcholinesterase (AChE) small molecule antagonists: enzyme-based qHTS assay with human liver microsomes (AID 1347399); note: nearly all actives have a fitted effect of over 60% in size
Conditions: qHTS inhibition; series mostly up to 115 µM
Active and inactive are the calls of the source. Calls come from the whole dose curve.
reported endpoint: outcome

INSERT INTO assay_data (compound, result) VALUES
  ('O=C(Cl)c1c(Cl)cccc1Cl', 'inactive'),
  ('O=C(c1ccc(O)cc1O)c1ccc(O)cc1O', 'inactive'),
  ('C/C=C/C(=O)N(CC)c1ccccc1C', 'inactive'),
  ('OC[C@H]1O[C@H](O[C@]2(CCl)O[C@H](CCl)[C@@H](O)[C@@H]2O)[C@H](O)[C@@H](O)[C@H]1Cl', 'inactive'),
  ('CC(CCO)CC(C)(C)C (stereo not given)', 'inactive');

Hello, I would appreciate it if you could give outcome for each entry below.
1. CC(=O)NNC(C)=O
2. CC[C@]12CCCN3CCc4c(n(c5ccccc45)[C@@](O)(C(=O)OC)C1)[C@@H]32
3. O=C(O)CCCCCCCCCC(=O)O
4. CN(C)CCCNCCC#N

1: inactive; 2: inactive; 3: inactive; 4: inactive
